# Measurement target: UniProt P37231
# Sequence (P37231 29-505): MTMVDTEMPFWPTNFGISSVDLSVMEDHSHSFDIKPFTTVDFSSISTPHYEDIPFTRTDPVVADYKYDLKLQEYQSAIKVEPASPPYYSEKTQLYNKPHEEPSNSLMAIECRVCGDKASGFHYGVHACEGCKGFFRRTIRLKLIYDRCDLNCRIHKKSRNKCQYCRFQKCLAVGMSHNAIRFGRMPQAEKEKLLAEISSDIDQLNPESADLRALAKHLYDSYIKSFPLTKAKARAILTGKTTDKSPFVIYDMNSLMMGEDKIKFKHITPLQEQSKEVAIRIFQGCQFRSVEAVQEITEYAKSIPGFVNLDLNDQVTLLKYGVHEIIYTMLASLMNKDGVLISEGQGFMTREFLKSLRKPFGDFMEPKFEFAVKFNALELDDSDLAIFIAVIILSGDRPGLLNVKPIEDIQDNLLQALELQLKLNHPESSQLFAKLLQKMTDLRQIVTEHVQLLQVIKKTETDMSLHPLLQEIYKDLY
# Assay text: PPARγ luciferase reporter gene transactivation in HEK-293 cells
# Condition context: PPARγ-driven luciferase reporter assay, 18 h
Observed property: maximal fold activation

// maximal fold activation lookup, compound = C=C[C@H]1OCc2cc3cc(OC)c(O)cc3c(C#C[C@@H](O)/C=C\CCCCCCC)c21 [compound 10, Notoincisol B] , result: 2.3

The value of maximal fold activation measured for the compound C=C[C@H](C#CC#C[C@@H](O)/C=C\CCCCCCC)O[C@]1(C)CCC[C@]2(C)CC[C@@H](C(C)(C)O)C[C@H]21 [compound 1, Notoether A] turned out to be 1.6

// C=C[C@H](C#CC#C[C@@H](O)/C=C\CCCCCCC)O[C@]1(C)CC[C@@H](O)[C@]2(C)CC[C@@H](C(C)C)[C@@H](O)[C@H]21 [compound 3, Notoether C] : maximal fold activation value = 1.6

// sample C=C[C@@H](O)C#CC#C[C@H](/C=C\CCCCCCC)O[C@]1(C)CCC[C@]2(C)CC[C@@H](C(C)(C)O)C[C@H]21 [compound 2, Notoether B] , its maximal fold activation was 2.0
